Reported values of IC50 for individual entries
Target: T1, soluble human BLyS (human, UniProt Q9Y275 134-285)
T1 construct: also called hBLyS; human BAFF (BLyS)
Assay: DELFIA competition, Eu-hBLyS binding to coated TACI
Report the value in pM with no unit label.

6C10 IgG expressed in HEK293 cells (antibody, V domains shown, IgG from HEK293-FreeStyle cells; also called 6C10 (293)) VH: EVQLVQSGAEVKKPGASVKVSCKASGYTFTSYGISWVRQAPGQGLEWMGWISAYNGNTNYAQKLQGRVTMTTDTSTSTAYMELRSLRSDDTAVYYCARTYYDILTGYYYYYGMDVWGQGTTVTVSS VL: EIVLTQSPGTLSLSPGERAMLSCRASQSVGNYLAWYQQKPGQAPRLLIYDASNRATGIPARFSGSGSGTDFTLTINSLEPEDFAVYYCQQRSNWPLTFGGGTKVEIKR | 0.67

[ask] Which value of IC50 has been reported for 6C10 IgG1 F243A/V264A double mutein expressed in Pichia pastoris (antibody, V domains shown, IgG1 F243A/V264A (EU) double mutein, alpha-2,6-sialylated, from glycoengineered Pichia pastoris; also called 6C10-DM; 6C10-DM (Pichia)) VH: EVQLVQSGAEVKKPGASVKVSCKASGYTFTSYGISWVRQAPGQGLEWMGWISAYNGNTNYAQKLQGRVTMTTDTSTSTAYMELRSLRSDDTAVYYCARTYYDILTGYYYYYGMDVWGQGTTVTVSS VL: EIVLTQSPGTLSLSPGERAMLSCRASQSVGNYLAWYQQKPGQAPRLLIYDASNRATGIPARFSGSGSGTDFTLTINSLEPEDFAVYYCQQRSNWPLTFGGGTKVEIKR in the records?
[reply] 0.74
